For each of the binders below, state its OD450.
- SYSTEM: BSA (UniProt P02769)
- Sequence (P02769 25-607 limits assumed): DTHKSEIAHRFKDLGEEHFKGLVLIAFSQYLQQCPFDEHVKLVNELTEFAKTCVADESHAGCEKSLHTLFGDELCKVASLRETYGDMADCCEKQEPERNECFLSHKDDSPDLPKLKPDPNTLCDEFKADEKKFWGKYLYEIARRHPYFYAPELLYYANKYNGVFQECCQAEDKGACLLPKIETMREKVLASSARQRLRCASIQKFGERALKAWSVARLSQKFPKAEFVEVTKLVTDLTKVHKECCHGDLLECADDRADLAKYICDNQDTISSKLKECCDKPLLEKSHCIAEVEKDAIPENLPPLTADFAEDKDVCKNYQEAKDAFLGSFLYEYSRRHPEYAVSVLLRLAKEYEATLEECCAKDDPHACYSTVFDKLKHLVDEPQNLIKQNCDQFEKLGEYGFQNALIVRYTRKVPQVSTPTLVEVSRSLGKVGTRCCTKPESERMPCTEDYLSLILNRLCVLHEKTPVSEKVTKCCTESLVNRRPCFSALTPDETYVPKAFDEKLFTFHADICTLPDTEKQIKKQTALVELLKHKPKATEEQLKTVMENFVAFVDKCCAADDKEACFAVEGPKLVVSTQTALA
- METHOD_NOTES: scFv ELISA
A number alone suffices; assume OD450.

### Prompt Tell me measured OD450 for PcOxP_DB03_B08 (scFv, V domains shown, scFv in periplasmic extract) VH: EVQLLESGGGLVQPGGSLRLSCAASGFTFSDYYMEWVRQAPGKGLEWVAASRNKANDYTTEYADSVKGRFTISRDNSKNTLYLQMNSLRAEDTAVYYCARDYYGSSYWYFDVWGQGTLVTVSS VL: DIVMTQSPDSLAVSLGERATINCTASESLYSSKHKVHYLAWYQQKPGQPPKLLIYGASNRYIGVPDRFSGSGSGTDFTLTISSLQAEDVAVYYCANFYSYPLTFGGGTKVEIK please.
### Response 0.07

### Prompt Indicate its recorded OD450; the binder in question is PcOxP_DB03_B02 (scFv, V domains shown, scFv in periplasmic extract) VH: EVQLLESGGGLVQPGGSLRLSCAASGFAFSDFYMEWVRQAPGKGLEWVAASRNKANDYTTEYADSVKGRFTISRDNSKNTLYLQMNSLRAEDTAVYYCARDYYGSSYWYFDVWGQGTLVTVSS VL: DIQMTQSPSSLSASVGDRVTITCTASESLYSSKHKVHYLAWYQQKPGKAPKLLIYGASNRYDGVPSRFSGSGSGTDFTLTISSLQPEDFATYYCAQFYEYPLTFGGGTKVEIK
### Response 0.07

### Prompt Give OD450 for PcOxP_DB03_H02 (scFv, V domains shown, scFv in periplasmic extract) VH: EVQLLESGGGLVQPGGSLRLSCAASGFTESDFYMEWVRQAPGKGLEWVAASRNKYNDYTTEYADSVKGRFTISRDNSKNTLYLQMNSLRAEDTAVYYCARDYYGSSYWYFDVWGQGTLVTVSS VL: DIVMTQSPDSLAVSLGERATINCTASESLYSSKHKVHYLAWYQQKPGQPPKLLIYGAQNRYIGVPDRFSGSGSGTDFTLTISSLQAEDVAVYYCAQFYSYPLTFGGGTKVEIK
### Response 0.05

### Prompt Look up and report measured OD450 for this entry: PcOxP_DB03_E07 (scFv, V domains shown, scFv in periplasmic extract) VH: EVQLLESGGGLVQPGGSLRLSCAASGFTFSDNYMEWVRQAPGKGLEWVAASRNKANDYTNEYADSVKGRFTISRDNSKNTLYLQMNSLRAEDTAVYYCARDYYGSSYWYFDVWGQGTLVTVSS VL: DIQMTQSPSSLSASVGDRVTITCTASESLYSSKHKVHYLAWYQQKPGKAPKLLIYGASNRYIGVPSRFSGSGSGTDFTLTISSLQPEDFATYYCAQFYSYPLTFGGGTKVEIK
### Response 0.08

### Prompt Fill in OD450 for record PcOxP_DB04_C09 (scFv, V domains shown, scFv in periplasmic extract) VH: EVQLLESGGGLVQPGGSLRLSCAASGFTFSSYYMEWVRQAPGKGLEWVAASRNKANDYTTEYADSVKGRFTISRDNSKNTLYLQMNSLRAEDTAVYYCARDYYLSSYWYFDVWGQGTLVTVSS VL: DIVMTQSPDSLAVSLGERATINCTASESLYSPKHKVHYLAWYQQKPGQPPKLLIYGAENRYIGVPDRFSGSGSGTDFTLTISSLQAEDVAVYYCAQFYSYPLTFGGGTKVEIK
### Response 0.11

### Prompt Determine its reported OD450: PcOxP_DB02_B02 (scFv, V domains shown, scFv in periplasmic extract) VH: EVQLLESGGGLVQPGGSLRLSCAASGFTFSDYYMEWVRQAPGKGLEWVAASRNSGNDYTTEYADSVKGRFTISRDNSKNTLYLQMNSLRAEDTAVYYCARDYYGSSYWYFDVWGQGTLVTVSS VL: DIQMTQSPSSLSASVGDRVTITCTASESLYSSKHKVHYLAWYQQKPGKAPKLLIYGASNRLIGVPSRFSGSGSGTDFTLTISSLQPEDFATYYCAQFYWYPLTFGGGTKVEIK
### Response 0.11
